Reference for the values: patent US10800792B2

- target_system: unphosphorylated-BTK kinase domain (UP-BTK), GST-tagged human BTK (389-659aa) (Homo sapiens (Human))
- Sequence (Q06187 389-659): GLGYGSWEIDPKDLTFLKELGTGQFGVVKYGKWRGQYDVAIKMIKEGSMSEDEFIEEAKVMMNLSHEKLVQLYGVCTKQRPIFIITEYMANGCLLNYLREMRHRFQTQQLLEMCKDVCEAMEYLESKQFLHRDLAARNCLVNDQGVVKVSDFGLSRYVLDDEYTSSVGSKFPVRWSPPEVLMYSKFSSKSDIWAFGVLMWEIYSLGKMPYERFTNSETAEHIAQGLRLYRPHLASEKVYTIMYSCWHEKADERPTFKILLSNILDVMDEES
- experiment: BTK kinase Lanthascreen binding assay
- experimental_setup: Lanthascreen tracer competition, 60 minutes incubation; pIC50 = negative log of the IC50 in molar
result_type: BTK_I_binding pIC50
Note: the reply should be a number with no unit written.

Please review the entries below; each comes with its answer.
C=CC(=O)N1CCC[C@@H](NC(=O)c2sc3nccc4c3c2NC(=O)N4c2ccc(O[C@H]3CCOC3)cc2C)C1 ... 7.1
Cc1cc(Oc2ccccc2)ccc1N1C(=O)Nc2c(C(=O)N[C@H]3CCCN(C#N)C3)sc3nccc1c23 ... 7.0
Cc1cc(Oc2ccccc2)ccc1N1C(=O)Nc2c(C(=O)N[C@H]3CCCN(C=O)C3)sc3nccc1c23 ... 7.1
O=C(N[C@@H]1CCNC1)c1sc2nccc3c2c1NC(=O)N3c1ccc(Oc2ccccc2)nc1 ... 5.9
COc1ccc(N2C(=O)Nc3c(C(=O)NC4CCCN(C(=O)/C(C#N)=C/C5CC5)C4)sc4nccc2c34)c(C)c1 (stereo not drawn) ... 7.1

Q: # lookup: BTK_I_binding pIC50 of Cc1cc(Oc2ccccc2)cnc1N1C(=O)Nc2c(C(=O)N[C@@H]3CCCNC3)sc3nccc1c23
A: 7.1

Q: Now consider Cc1cc(Oc2ccccc2)ccc1N1C(=O)Nc2c(NC(=O)C3CCCN(C(=O)CC#N)C3)sc3nccc1c23 (stereo not drawn) .
A: 6.0

Q: How about Cc1cc(Oc2ccccc2)ccc1N1C(=O)Nc2c(C(=O)NC3CCCN(C#N)C3)sc3nccc1c23 (stereo not drawn) ?
A: 7.0

Q: Another compound to look at: C=CC(=O)N1CCCC(Nc2sc3nccc4c3c2NC(=O)N4c2ccc(Oc3ccccc3)cc2C)C1 (stereo not drawn)
A: 6.5

Q: Moving on to the next compound: N#CN1CCC[C@@H](NC(=O)c2sc3nccc4c3c2NC(=O)N4c2ccc(Oc3ccccc3)cc2)C1
A: 7.4

Q: Could you do the same for C=CC(=O)N1CC[C@@H](NC(=O)c2sc3nccc4c3c2NC(=O)N4c2cnc(Oc3ccccc3)cn2)C1 , please?
A: 7.2

Q: Same for O=C(N[C@@H]1CCCNC1)c1sc2nccc3c2c1NC(=O)N3c1cccc(C2CCC2)c1
A: 6.3

Q: Try the compound C=CC(=O)N1CC[C@@H](NC(=O)c2sc3nccc4c3c2NC(=O)N4c2ccc(Oc3ccccc3)nc2)C1
A: 7.3

====

- target_system: unphosphorylated-BTK kinase domain (UP-BTK), GST-tagged human BTK (389-659aa) (Homo sapiens (Human))
- experiment: BTK kinase Lanthascreen binding assay
- experimental_setup: unphosphorylated-BTK kinase domain, 50 nM Tracer 236, 60 minutes; pIC50 = negative log of the IC50 in molar
result_type: BTK_I_binding pIC50
Just the number, please, no unit attached.

A selection of reference data follows.
C=CC(=O)N1CC[C@@H](N(C)C(=O)c2sc3nccc4c3c2NC(=O)N4c2ccc(Oc3ccccc3)cc2C)C1 (single isomer, unassigned) [Example 441] ... 5.9
Cc1cc(Oc2ccccc2)ccc1N1C(=O)Nc2c(C(=O)NC[C@@H]3CCCCN3)sc3nccc1c23 ... 6.0
Cc1cc(Oc2ccccn2)ccc1N1C(=O)Nc2c(C(=O)N[C@@H]3CCCN(C)C3)sc3nccc1c23 ... 6.0

Q: Give its BTK_I_binding pIC50 value. Item: Cc1cc(Oc2ccccc2)ccc1N1C(=O)Nc2c(C(=O)N[C@@H]3CCCN(C(=O)/C=C/CN(C)C)C3)sc3nccc1c23 (single isomer, unassigned) [Example 488]
A: 7.2

Q: Here is the next compound: C=CC(=O)N1CCC[C@@H](NC(=O)c2sc3nccc4c3c2NC(=O)N4c2ccc3sccc3c2)C1
A: 6.1

Q: Could you do the same for C=CC(=O)N1CCC[C@@H](NC(=O)c2sc3nccc4c3c2NC(=O)N4c2ccn(Cc3ccccc3)n2)C1 , please?
A: 6.0
